- target_of_assay: recombinant human SYK (GST-hSYK fusion protein) (Homo sapiens)
- assay_details: biochemical
- condition_context: rhSYK Activity, Table 116A
endpoint_name: IC50

compound: Cc1cc(Nc2nc(C)cc(C)n2)cc(-c2cnc([C@]3(O)CC[C@@H](O)CC3)s2)c1 [116A-1]
recorded_result: 1 to 10 µM

compound: Cc1cc(Nc2nccc(C(F)F)n2)cc(-c2cnc([C@@]3(O)CC[C@H](C(=O)O)C(C)(C)C3)s2)c1 [116A-30]
recorded_result: < 0.1 µM

compound: Cc1cc(Nc2ncc(F)c(O)n2)cc(-c2cnc(C3(O)CCC(C(=O)O)C(C)(C)C3)s2)c1 (stereo not drawn) [116A-23]
recorded_result: 0.1 to 1 µM

###

- target_of_assay: recombinant human SYK (GST-hSYK fusion protein) (Homo sapiens)
- assay_details: biochemical
- condition_context: hSYK Activity, table after Example 66

substance_smiles: CC(=O)NC1(c2ncc(-c3cc(C)cc(Nc4nccc(C(F)(F)F)n4)c3)s2)COC1
IC50: < 0.1 µM

###

- target_of_assay: recombinant human SYK (GST-hSYK fusion protein) (Homo sapiens, UniProt P43405)
- assay_details: biochemical
- condition_context: rhSYK Activity, Table 33-A
pIC50: −log10 of the molar value.
endpoint_name: pIC50

compound: CC(=O)NC1(C(=O)O)CCC(O)(c2ncc(-c3cc(C)cc(Nc4nccc(C(F)(F)F)n4)c3)s2)CC1 (stereo not drawn) [Example 33A-15]
endpoint_name: pIC50
recorded_result: > 7.00

compound: COC(=O)C1CCC(O)(c2ncc(-c3cc(Nc4nccc(C(F)(F)F)n4)cc(C(F)F)c3)s2)CC1(C)C (stereo not drawn) [Example 33A-55]
endpoint_name: pIC50
recorded_result: 6.00 to 7.00

compound: Cc1cc(Nc2nccc(C(F)(F)F)n2)cc(-c2cnc([C@]3(O)CC[C@H](C(=O)O)CC3)s2)c1 [Example 33A-8]
endpoint_name: pIC50
recorded_result: > 7.00

compound: Cc1cc(Nc2nccc(C(F)(F)F)n2)cc(-c2cnc(C3(O)CCC(C(=O)O)C(C)(C)C3C)s2)c1 (single isomer, unassigned) [Example 33A-77]
endpoint_name: pIC50
recorded_result: > 7.00

compound: COC(=O)C1CCC(O)(c2ncc(-c3cc(C)cc(Nc4nccc(C5CC5)n4)c3)s2)CC1(C)C (stereo not drawn) [Example 33A-70]
endpoint_name: pIC50
recorded_result: > 7.00

compound: Cc1cc(Nc2ncc(F)cn2)cc(-c2cnc(C3(O)CCC(C)(C(=O)O)CC3)s2)c1 (stereo not drawn) [Example 33A-3]
endpoint_name: pIC50
recorded_result: > 7.00

compound: O=C(O)[C@H]1CC[C@@](O)(c2ncc(-c3cc(Cl)cc(Nc4nccc(C(F)(F)F)n4)c3)s2)CC1 [Example 33A-22]
endpoint_name: pIC50
recorded_result: > 7.00

compound: Cc1cc(Nc2nccc(C(F)(F)F)n2)cc(-c2cnc([C@]3(O)CC[C@](C)(C(=O)O)CC3)s2)c1 [Example 33A-12]
endpoint_name: pIC50
recorded_result: > 7.00

compound: O=C(O)[C@H]1CC[C@@](O)(c2ncc(-c3cccc(Nc4nccc(C(F)(F)F)n4)c3)s2)CC1 [Example 33A-23]
endpoint_name: pIC50
recorded_result: > 7.00

compound: CCOC(=O)C1(C)CCC(O)(c2ncc(-c3cc(C)cc(Nc4nccc(C(F)(F)F)n4)c3)s2)CC1 (stereo not drawn) [Example 33A-11]
endpoint_name: pIC50
recorded_result: 6.00 to 7.00

compound: Cc1cc(Nc2ncc(F)cn2)cc(-c2cnc([C@]3(O)CC[C@](C)(C(=O)O)CC3)s2)c1 [Example 33A-4]
endpoint_name: pIC50
recorded_result: > 7.00

compound: Cc1cc(Nc2ncc(Cl)cn2)cc(-c2cnc(C3(O)CCC(C(=O)O)C(C)(C)C3)s2)c1 (single isomer, unassigned) [Example 33A-43]
endpoint_name: pIC50
recorded_result: > 7.00

compound: CC(C)(O)c1cc(Nc2nccc(C(F)(F)F)n2)cc(-c2cnc(C3(O)CCC(C(=O)O)C(C)(C)C3)s2)c1 (stereo not drawn) [Example 33A-48]
endpoint_name: pIC50
recorded_result: > 7.00

compound: Cc1cc(Nc2ncc(F)cn2)cc(-c2cnc(C3(O)CCC(C(=O)O)C(C)(C)C3)s2)c1 (stereo not drawn) [Example 33A-45]
endpoint_name: pIC50
recorded_result: 6.00 to 7.00

compound: Cc1cc(Nc2ncc(F)cn2)cc(-c2cnc(C3(O)CCC(C(=O)O)C(C)(C)C3)s2)c1 (single isomer, unassigned) [Example 33A-47]
endpoint_name: pIC50
recorded_result: > 7.00

compound: CCOC(=O)[C@H]1CC[C@@](O)(c2ncc(-c3cccc(Nc4nccc(C(F)(F)F)n4)c3)s2)CC1 [Example 33A-26]
endpoint_name: pIC50
recorded_result: 6.00 to 7.00

compound: CC1(C)CC(O)(c2ncc(-c3cc(CO)cc(Nc4nccc(C(F)(F)F)n4)c3)s2)CCC1C(=O)O (single isomer, unassigned) [Example 33A-51]
endpoint_name: pIC50
recorded_result: > 7.00

compound: Cc1cc(Nc2nccc(C)n2)cc(-c2cnc([C@]3(O)CC[C@@H](C(=O)O)CC3)s2)c1 [Example 33A-30]
endpoint_name: pIC50
recorded_result: > 7.00

compound: CC1(C)CC(O)(c2ncc(-c3cc(F)cc(Nc4nccc(C(F)(F)F)n4)c3)s2)CCC1C(=O)O (single isomer, unassigned) [Example 33A-63]
endpoint_name: pIC50
recorded_result: > 7.00

compound: COC(=O)C1CCC(O)(c2ncc(-c3cc(CO)cc(Nc4nccc(C(F)(F)F)n4)c3)s2)CC1(C)C (single isomer, unassigned) [Example 33A-50]
endpoint_name: pIC50
recorded_result: > 7.00

compound: COc1ccnc(Nc2cc(C)cc(-c3cnc([C@]4(O)CC[C@](C)(C(=O)O)CC4)s3)c2)n1 [Example 33A-38]
endpoint_name: pIC50
recorded_result: > 7.00

compound: Cc1cc(Nc2ncc(F)c(C3CC3)n2)cc(-c2cnc(C3(O)CCC(C(=O)O)C(C)(C)C3)s2)c1 (stereo not drawn) [Example 33A-40]
endpoint_name: pIC50
recorded_result: > 7.00

compound: O=C(O)[C@H]1CC[C@](O)(c2ncc(-c3cccc(Nc4nccc(C(F)(F)F)n4)c3)s2)CC1 [Example 33A-24]
endpoint_name: pIC50
recorded_result: > 7.00

compound: COc1ccnc(Nc2cc(C)cc(-c3cnc(C4(O)CCC(C(=O)O)CC4)s3)c2)n1 (stereo not drawn) [Example 33A-35]
endpoint_name: pIC50
recorded_result: > 7.00

compound: COC(=O)C1CCC(O)(c2ncc(-c3cc(C)cc(Nc4ncc(F)c(C5CC5)n4)c3)s2)CC1(C)C (stereo not drawn) [Example 33A-39]
endpoint_name: pIC50
recorded_result: > 7.00

compound: Cc1cc(Nc2nccc(OC(C)C)n2)cc(-c2cnc([C@]3(O)CC[C@@H](C(=O)OC(C)(C)C)CC3)s2)c1 [Example 33A-34]
endpoint_name: pIC50
recorded_result: 6.00 to 7.00

compound: COC(=O)C1(NC(C)=O)CCC(O)(c2ncc(-c3cc(C)cc(Nc4nccc(C(F)(F)F)n4)c3)s2)CC1 (stereo not drawn) [Example 33A-14]
endpoint_name: pIC50
recorded_result: > 7.00

###

- target_of_assay: recombinant human SYK (GST-hSYK fusion protein) (Homo sapiens)
- assay_details: biochemical
- condition_context: rhSYK Activity, Table 8A

compound: Cc1cc(Nc2ncc(Cl)c(C)n2)cc(-c2cnc([C@]3(O)CC[C@@H](O)CC3)s2)c1 [8A-2]
IC50: < 100 nM

compound: Cc1cc(Nc2ncc(F)c(C)n2)cc(-c2cnc(C3(O)CCC(=O)CC3)s2)c1 [8A-8]
IC50: < 100 nM

compound: COc1nc(Nc2cc(C)cc(-c3cnc(C4(O)CCC(O)CC4)s3)c2)ncc1Cl (stereo not drawn) [8A-5]
IC50: < 100 nM

###

- target_of_assay: recombinant human SYK (GST-hSYK fusion protein) (Homo sapiens)
- assay_details: biochemical
- condition_context: rhSYK Activity, Table 108A
pIC50: −log10 of the molar value.

compound: Cc1cc(Nc2nccc(OCC3CC(=O)N(C)C3)n2)cc(-c2cnc(C3(O)CCC3)s2)c1 (centres unmarked) [Example 108A-23]
pIC50: > 7.00
--
compound: Cc1cc(Nc2nccc(OC(C)C)n2)cc(-c2cnc(C3(O)CCC3)s2)c1 [Example 108A-37]
pIC50: > 7.00
--
compound: Cc1cc(Nc2nccc(OCCN3CCCNCC3)n2)cc(-c2cnc(C3(O)CCC3)s2)c1 [Example 108A-19]
pIC50: > 7.00
--
compound: Cc1cc(Nc2nccc(OCc3c[nH]cn3)n2)cc(-c2cnc(C3(O)CCC3)s2)c1 [Example 108A-2]
pIC50: > 7.00
--
compound: Cc1cc(Nc2nccc(SCCCCO)n2)cc(-c2cnc(C3(O)CCC3)s2)c1 [Example 108A-46]
pIC50: > 7.00
--
compound: Cc1cc(Nc2nccc(OCCNC3CCN(C)CC3)n2)cc(-c2cnc(C3(O)CCC3)s2)c1 [Example 108A-14]
pIC50: 6.00 to 7.00
--
compound: CCCCSc1ccnc(Nc2cc(C)cc(-c3cnc(C4(O)CCC4)s3)c2)n1 [Example 108A-41]
pIC50: 6.00 to 7.00
--
compound: Cc1cc(Nc2nccc(SCCCO)n2)cc(-c2cnc(C3(O)CCC3)s2)c1 [Example 108A-45]
pIC50: > 7.00
